test system: K4 kissing-loop RNA reporter; assay: apparent KD of K4 kissing-loop reporter; higher = weaker reporter binding; conditions: Eterna round: R107; input ligand: none;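 further: bound reporter read as fluorescence of individual clusters on recovered sequencing chips by microscopy, with normalized cluster intensities fitted with a binding model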
Measured apparent KD of K4 kissing-loop reporter accompanies every entry in the list below.

[
  {
    "seqText": "UAUUAAGUGACGGCCGCCACUAUGGUGAUUUAUUUGUUUGAGUGAUGUUUUGAUGUUUGAUUUUGUAGGACCGGGUUAUGUGUUA [ttttcmullin]",
    "measurementUnit": "nM",
    "apparent KD of K4 kissing-loop reporter": 735
  },
  {
    "seqText": "AGAGUACGAAAGUACUCCUCUACACACUGCCGAGGACCGGUACGGCCGCCACUCGAGUUGAGUGAUGUUCGACAGUGUGUAGAGA [Omei KL Tryp A SS C v2]",
    "measurementUnit": "nM",
    "apparent KD of K4 kissing-loop reporter": 79
  },
  {
    "seqText": "GUCCCAGUGAUGUUGGUAGGCGAGCGGGAUACCAGCGAAGACUCACGCCCUUGGCAGCCCACAUAUCCCGCGUAGGGAUUAGCUC [Same State - Theophylline A (Freestyle 21)]",
    "measurementUnit": "nM",
    "apparent KD of K4 kissing-loop reporter": 431
  },
  {
    "seqText": "AAUAAGGAGUGAUGUUCCAAGUGAUGUUAACGAGGACCGGUACGGCCGCCACUCGAUACGGCCGGAAAGUAAGAUAAACUACAAU [Same State - Tryptophan A (Freestyle 3)]",
    "measurementUnit": "nM",
    "apparent KD of K4 kissing-loop reporter": 60.8
  },
  {
    "seqText": "GCGCAUGUUAAAGGAUAUAGCAGGUGAUACAAGAAAGUGAGUGAUGUUUAUGUAGAUGAUGAUAUGUUAGAAGGUUAACAAACGC [abcdefghijklmno]",
    "measurementUnit": "nM",
    "apparent KD of K4 kissing-loop reporter": 809
  },
  {
    "seqText": "AAAUUUAAUAUAUUUAAUUAAUUAAGUGAUACCAGACAUUAAUAAGUCCCUUGGCAGCACAAUGCAGUGAUGUUGCUUAUAAUAA [JR_SSTheophyA_Sub009]",
    "measurementUnit": "nM",
    "apparent KD of K4 kissing-loop reporter": 76.6
  }
]

---

test system: MS2 coat protein; assay: apparent KD of MS2 coat protein; higher = weaker reporter binding; conditions: Eterna round: R107; input ligand: theophylline 2 mM

[
  {
    "seqText": "UAAUAGGUCCAGAACGUACCAGGUGAUCAACGAGGACCGGUACGGCCGCCACUCGAAACAUGAGGAUCACCCAUGUAACUGGACC [|T'-M'-Trp-Ms2|_Design 2_ML]",
    "apparent KD of MS2 coat protein [nM]": 518
  },
  {
    "seqText": "CAAUAAGUACCGGUCCUCAGAUCCUCAUGACGAGGACCGGUACGGCCGCCACUCGAAACAUGAGGAUCACCCAUGUAAUAAUAAC [Brourdmod02]",
    "apparent KD of MS2 coat protein [nM]": 51.9
  },
  {
    "seqText": "GCGAACGGACCGUUGCCUUCCUGUGUGCGGCGAGGACCGGUACGGCCGCCACUCGACUGCGUACAUGAGGAUCACCCAUGUUAGA [theeternabot_exclusion_MS2_Trp_A_16]",
    "apparent KD of MS2 coat protein [nM]": 31.8
  },
  {
    "seqText": "GUCCACAGCCGAAGGAGCGCUAGAAGAUGACAUGAGGAUCACCCAUGUGUGUGAUGUGGCUAGCAGGUAGGUCGCGGAGUGGAUU [Exclusion - Arginine B (Freestyle 14)]",
    "apparent KD of MS2 coat protein [nM]": 24.8
  },
  {
    "seqText": "CCAUAAGUACCGGUCCUCAGAUCCUCAUGACGAGGACCGGUACGGCCGCCACUCGAAACAUGAGGAUCACCCAUGUAAUAAUAUC [Brourdmod17]",
    "apparent KD of MS2 coat protein [nM]": 66
  },
  {
    "seqText": "UCGGGAACAUGAGGAUCACCCAUGUCAGAAGGAGCGCUGAGAGAAGCAGGUAGGUCGCUGACGUAGGAGCUCUCUUCCUAUACGC [Exclusion - Arginine A]",
    "apparent KD of MS2 coat protein [nM]": 35.4
  },
  {
    "seqText": "CACGCACGAUCGGCCGCCACUCGUGUAGCUUACAUGAGGAUCACCCAUGUAUGUUCAUUCAUAUAGAGGACCGGGAUCGUGCGUG [#05 Same State - Tryptophan B]",
    "apparent KD of MS2 coat protein [nM]": 12.1
  },
  {
    "seqText": "UGAUUGAACGGAAGGAGCGUGAAGAGAGAGAAACAUGAGGAUCACCCAUGUAGAGAGAGAACACAGGUAGGUCGCCGAGAGAUUG [11.B]",
    "apparent KD of MS2 coat protein [nM]": 14.7
  },
  {
    "seqText": "UAGUACAUGAGGAUCACCCAUGUCGGAGGUCGAGGACCGGUACGGCCGCCACUCGGUCAUGCCCUACGAUACGACAGGAAUCUGU [theeternabot_sameState_MS2_Trp_A_28]",
    "apparent KD of MS2 coat protein [nM]": 28.9
  },
  {
    "seqText": "UAUCCACAUGAGGAUCACCCAUGUAAGGAAGGAGCGGUGAAUGCACCAGGUAGGUCGCCUUGCUGAGGACUGUCGGUGGAUUCGU [Exclusion - Arginine A (Freestyle 22)]",
    "apparent KD of MS2 coat protein [nM]": 39.5
  },
  {
    "seqText": "CCUAUCCAGUCGGCCGCCACUGAAAACAGUGGGUGAACAUGAGGAUCACCCAUGUAAUAAUAAAACAGGACCGGGACUGUAUAGG [Ex Tryptophan B 22]",
    "apparent KD of MS2 coat protein [nM]": 882
  }
]
